The values you see were collected from patent US8119624B2.

- TGT: Full-length glucokinase (beta cell isoform) (Homo sapiens)
- Construct: Full-length glucokinase (beta cell isoform) was His-tagged at N-terminus; His tag (N); made in house
- Sequence (P35557 1-465): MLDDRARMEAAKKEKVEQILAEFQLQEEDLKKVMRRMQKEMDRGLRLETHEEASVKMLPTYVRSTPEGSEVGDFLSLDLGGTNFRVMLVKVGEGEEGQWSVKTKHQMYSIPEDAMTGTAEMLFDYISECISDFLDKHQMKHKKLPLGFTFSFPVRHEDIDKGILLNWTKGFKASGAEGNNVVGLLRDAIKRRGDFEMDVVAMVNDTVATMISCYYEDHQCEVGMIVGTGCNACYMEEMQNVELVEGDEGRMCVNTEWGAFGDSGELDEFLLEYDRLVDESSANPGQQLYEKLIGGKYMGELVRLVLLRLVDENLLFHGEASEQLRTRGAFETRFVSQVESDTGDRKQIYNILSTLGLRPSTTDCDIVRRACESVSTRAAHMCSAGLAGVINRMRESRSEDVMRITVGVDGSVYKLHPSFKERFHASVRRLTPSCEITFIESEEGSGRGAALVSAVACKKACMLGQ
- EXPERIMENTAL DETAILS: Glucokinase biochemical assay (PK/LDH-coupled, NADH depletion at 340 nm): % activation, EC50, % max activation
- CONDITION NOTES: 5 mM glucose; fitted maximum activation; read-out: % Max Activation
Property: Emax; scope: individual molecules
MEASURE NAME: Emax

| MOLECULE | MEASURE NAME | RESULT |
| --- | --- | --- |
| Cc1ccnc(NC(=O)c2cc(Oc3ccc(S(C)(=O)=O)cc3)c3c(c2)OC(C)(C)C3)c1 | Emax | 70% |
| Cc1ccc(NC(=O)c2cc(Oc3ccc(S(C)(=O)=O)c(F)c3)c3c(c2)OC(C)(CO)C3)nc1 (stereo not shown) | Emax | 165% |
| Cn1ccc(NC(=O)c2cc(Oc3ccc(C(=O)N4CCC4)c(F)c3)c3c(c2)OC(C)(CO)C3)n1 (stereo not shown) | Emax | 135% |
| Cn1cc(C(=O)COc2cc(C(=O)Nc3ccn(C)n3)cc3c2CC(C)(C)O3)cn1 | Emax | 102% |
